target: human OT7T175 (metastin receptor) (human, UniProt Q969F8 1-398); assay: cell-based or functional assay
Sequence (Q969F8 whole entry L364H): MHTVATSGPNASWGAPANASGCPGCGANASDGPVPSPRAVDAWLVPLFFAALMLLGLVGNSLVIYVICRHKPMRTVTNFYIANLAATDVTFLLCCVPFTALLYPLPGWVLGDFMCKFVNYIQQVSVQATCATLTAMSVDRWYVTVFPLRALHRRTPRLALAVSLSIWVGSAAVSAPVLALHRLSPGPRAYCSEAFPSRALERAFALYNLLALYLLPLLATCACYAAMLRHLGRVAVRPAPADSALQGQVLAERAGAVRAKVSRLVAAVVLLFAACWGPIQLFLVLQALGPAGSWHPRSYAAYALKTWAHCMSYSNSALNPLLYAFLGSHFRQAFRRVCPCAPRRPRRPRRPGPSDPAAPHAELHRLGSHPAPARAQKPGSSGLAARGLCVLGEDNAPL
Square brackets hold non-standard residues; d marks the D form. Ends that are not written are not given here. * marks the point of attachment. 2‑(indol-3-yl)ethylcarbamoyl = O=C(NCCc1c[nH]c2ccccc12)*; Phe(4-NH2) = Nc1ccc(C[C@H](N)C(=O)O)cc1; Arg(Me) = CNC(=N)NCCC[C@H](N)C(=O)O; d3Pal = N[C@H](Cc1cccnc1)C(=O)O; amidino = N=C(N)*; azaGly = NNC(=O)O
assay-endpoint: intracellular Ca ion level-increasing activity (FLIPR)

amidino-WNSF[azaGly]L[Arg(Me)]F-NH2 (SMILES CNC(=N)NCCC[C@H](NC(=O)[C@H](CC(C)C)NC(=O)NNC(=O)[C@H](Cc1ccccc1)NC(=O)[C@H](CO)NC(=O)[C@H](CC(N)=O)NC(=O)[C@H](Cc1c[nH]c2ccccc12)NC(=N)N)C(=O)N[C@@H](Cc1ccccc1)C(N)=O) [Compound No. 273: des(1-2)-Amidino-[AzaGly7,Arg(Me)9]MS10] : 5 specific activity to metastin (1-54)

Hey, quick one: what's intracellular Ca ion level-increasing activity (FLIPR) for each of these?
1. [dY]N[Phe(4-NH2)]NSF[azaGly]L[Arg(Me)]F-NH2 [Compound No. 250: [D-Tyr1,Phe(4NH2) 3,AzaGly7,Arg(Me)9]MS10]
2. {2‑(indol-3-yl)ethylcarbamoyl}-NSF[azaGly]L[Arg(Me)]F-NH2 (SMILES CNC(=N)NCCC[C@H](NC(=O)[C@H](CC(C)C)NC(=O)NNC(=O)[C@H](Cc1ccccc1)NC(=O)[C@H](CO)NC(=O)[C@H](CC(N)=O)NC(=O)NCCc1c[nH]c2ccccc12)C(=O)N[C@@H](Cc1ccccc1)C(N)=O) [Compound No. 279: des(1-3)-2-(Indol-3-yl)ethylcarbamoyl-[AzaGly7,Arg(Me)9]MS10]
3. Ac-WNSF[azaGly]L[Arg(Me)]F-NH2 (SMILES CNC(=N)NCCC[C@H](NC(=O)[C@H](CC(C)C)NC(=O)NNC(=O)[C@H](Cc1ccccc1)NC(=O)[C@H](CO)NC(=O)[C@H](CC(N)=O)NC(=O)[C@H](Cc1c[nH]c2ccccc12)NC(C)=O)C(=O)N[C@@H](Cc1ccccc1)C(N)=O) [Compound No. 272: des(1-2)-Acetyl-[AzaGly7,Arg(Me)9]MS10]

1. 1 specific activity to metastin (1-54)
2. 5 specific activity to metastin (1-54)
3. 2 specific activity to metastin (1-54)

Hey, quick one: what's intracellular Ca ion level-increasing activity (FLIPR) for each of these?
1. {n‑Hexanoyl}-NSF[azaGly]L[Arg(Me)]F-NH2 [Compound No. 277: des(1-3)-n-Hexanoyl-[AzaGly7,Arg(Me)9]MS10]
2. [d3Pal]FNSF[azaGly]L[Arg(Me)]F-NH2 [Compound No. 256: des(1)-[D-Pya(3) 2,Phe3,AzaGly7,Arg(Me)9]MS10]

2 specific activity to metastin (1-54)
1 specific activity to metastin (1-54)

Hey, quick one: what's intracellular Ca ion level-increasing activity (FLIPR) for each of these?
1. {Indole‑3‑acetyl}-NSF[azaGly]L[Arg(Me)]F-NH2 [Compound No. 266: des(1-3)-Indole-3-acetyl-[AzaGly7,Arg(Me)9]MS10]
2. [dY][dS]WNSF[azaGly]L[Arg(Me)]F-NH2 [Compound No. 287: [D-Tyr1,D-Ser2,AzaGly7,Arg(Me)9]MS10]

2 specific activity to metastin (1-54)
2 specific activity to metastin (1-54)
